Origin of measurements: patent US20150105252A1

Each entry below carries its reported Corn plant response rating.
# System: corn
# assay: Test A preemergence
# Assay type: in vivo, Zea mays
# particulars: Preemergence, 500 g ai/ha; 0 to 100 scale, 0 no effect, 100 complete control
# Description: […]
experimental readout: Corn plant response rating

• CCONC(=O)c1cc(CC)n(Cc2ccnc(C(F)(F)F)c2)n1 = 30
• Cc1cc(C(=O)NCC(F)(F)F)nn1Cc1cccc(C(F)(F)F)c1F = 0
• CCc1cc(C(=O)NC2CC2)nn1Cc1ccnc(C(F)(F)F)c1 = 80
• Cc1cc(C(=O)NCC(F)(F)C(F)(F)F)nn1Cc1cccc(OC(F)(F)F)c1 = 0
